- ASSAYED_TARGET: RSV-A F protein (Human respiratory syncytial virus A, UniProt P03420)
- Construct: expressed in transfected cells; host or cells: 293 T cells
- Sequence (P03420 137-574): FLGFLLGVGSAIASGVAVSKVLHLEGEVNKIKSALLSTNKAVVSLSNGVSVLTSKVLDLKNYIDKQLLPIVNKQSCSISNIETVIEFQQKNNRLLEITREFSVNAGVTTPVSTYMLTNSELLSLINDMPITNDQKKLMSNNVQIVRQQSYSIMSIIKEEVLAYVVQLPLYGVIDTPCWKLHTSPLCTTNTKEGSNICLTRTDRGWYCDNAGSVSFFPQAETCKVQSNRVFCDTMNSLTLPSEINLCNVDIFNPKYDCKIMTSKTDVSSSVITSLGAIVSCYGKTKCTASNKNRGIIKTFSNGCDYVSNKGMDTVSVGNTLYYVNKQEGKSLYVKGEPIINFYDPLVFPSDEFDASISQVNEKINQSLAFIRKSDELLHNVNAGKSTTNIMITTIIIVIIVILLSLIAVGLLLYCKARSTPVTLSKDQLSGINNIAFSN
- Sequence (P03420 26-109): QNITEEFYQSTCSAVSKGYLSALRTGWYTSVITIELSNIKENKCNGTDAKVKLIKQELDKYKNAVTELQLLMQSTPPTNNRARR
- METHOD_DESCRIPTION: cell-based
- ASSAY_SETUP: (L) inhibitors of RSV, controls for D-peptide studies; assay not stated in Table 6; read-out: IC50
MEASURED_ENDPOINT: IC50 (nM)
Reply with just the number (in nM).

Consider LEGEVNKIKSALLSTNKAVVSLSNGVSVLTSKVLDLKNYIDKQLLPIVNIKKEIEAIKKEQEAIKKKIEAI-GKG-(Glu-biotinyl-PEG)-NH2 [RSVA N49IZ-GKG(Glu-Biotinyl-PEG)] . Its measured IC50 is 102

Consider (biotin-PEG2)GKG-IKKEIEAIKKEQEAIKKKIEALEGEVNKIKSALLSTNKAVVSLSNGVSVLTSKVLDLKNYIDKQLLPIV-NH2 [(Biotin-PEG2)GKG-RSVA IZN48] . Its measured IC50 is 215

----------
- ASSAYED_TARGET: RSV-B/IZN45 (Human respiratory syncytial virus B)
- Construct: N-trimer Mimics Synthesized; made in house; host or cells: chemical peptide synthesis
- Sequence (O36634 163-207, added parts left off): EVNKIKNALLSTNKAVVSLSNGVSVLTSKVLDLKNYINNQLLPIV
- METHOD_DESCRIPTION: biochemical
- Assay type: binding
- ASSAY_SETUP: synthesized peptide; RSV-B/IZN45; KD determined by SPR
Non-standard residues stand in square brackets, D forms with d. Residues, ends and D or L forms follow the SMILES beside them.
MEASURED_ENDPOINT: pKd
Friendly reminder that pKd comes from taking -log10 of the concentration in mol/L.

Consider CC[C@@H](C)[C@@H](N)C(=O)N[C@H](CO)C(=O)N[C@H](CC(C)C)C(=O)N1CCC[C@@H]1C(=O)N[C@@H](C(=O)N1CCC[C@@H]1C(=O)N[C@@H](C(=O)N[C@H](Cc1c[nH]c2ccccc12)C(=O)N[C@H](Cc1c[nH]c2ccccc12)C(=O)N1CCC[C@@H]1C(=O)N[C@H](CO)C(=O)N[C@@H](C(=O)NCC(=O)NCC(N)=O)[C@H](C)O)[C@H](C)O)[C@H](C)O [X12-45-GG] (H-[dI][dS][dL][dP][dT][dP][dT][dW][dW][dP][dS][dT]GG-NH2) . Its measured pKd is 4.96

Consider CC[C@@H](C)[C@@H](NC(C)=O)C(=O)N[C@H](CO)C(=O)N[C@H](CC(C)C)C(=O)N1CCC[C@@H]1C(=O)N[C@@H](C(=O)N1CCC[C@@H]1C(=O)N[C@@H](C(=O)N[C@H](Cc1c[nH]c2ccccc12)C(=O)N[C@H](Cc1c[nH]c2ccccc12)C(=O)N1CCC[C@@H]1C(=O)N[C@H](CO)C(=O)N[C@@H](C(=O)NCC(=O)N[C@H](CCCCN)C(N)=O)[C@H](C)O)[C@H](C)O)[C@H](C)O [Ac-X12-45-GK] (Ac-[dI][dS][dL][dP][dT][dP][dT][dW][dW][dP][dS][dT]G[dK]-NH2) . Its measured pKd is 4.64

Consider CC[C@@H](C)[C@@H](NC(=O)[C@H](NC(=O)[C@@H](CCCCN)NC(=O)[C@H](N)CO)C(C)C)C(=O)N[C@H](CC(C)C)C(=O)N1CCC[C@@H]1C(=O)N[C@H](CCC(=O)O)C(=O)N1CCC[C@@H]1C(=O)N[C@H](Cc1ccccc1)C(=O)N[C@H](Cc1c[nH]c2ccccc12)C(=O)N[C@H](Cc1c[nH]c2ccccc12)C(=O)N1CCC[C@@H]1C(=O)NCC(=O)NCC(N)=O [X12-47-GG] (H-[dS][dK][dV][dI][dL][dP][dE][dP][dF][dW][dW][dP]GG-NH2) . Its measured pKd is 4.77

Consider CC[C@@H](C)[C@@H](NC(C)=O)C(=O)N[C@H](CO)C(=O)N[C@H](CC(C)C)C(=O)N1CCC[C@@H]1C(=O)N[C@@H](C(=O)N1CCC[C@@H]1C(=O)N[C@@H](C(=O)N[C@H](Cc1c[nH]c2ccccc12)C(=O)N[C@H](Cc1c[nH]c2ccccc12)C(=O)N1CCC[C@@H]1C(=O)N[C@H](CO)C(=O)N[C@@H](C(=O)NCC(=O)NCC(N)=O)[C@H](C)O)[C@H](C)O)[C@H](C)O [Ac-X12-45-GG] (Ac-[dI][dS][dL][dP][dT][dP][dT][dW][dW][dP][dS][dT]GG-NH2) . Its measured pKd is 4.60

Consider CC[C@@H](C)[C@@H](N)C(=O)N[C@H](CO)C(=O)N[C@H](CC(C)C)C(=O)N1CCC[C@@H]1C(=O)N[C@@H](C(=O)N1CCC[C@@H]1C(=O)N[C@@H](C(=O)N[C@H](Cc1c[nH]c2ccccc12)C(=O)N[C@H](Cc1c[nH]c2ccccc12)C(=O)N1CCC[C@@H]1C(=O)N[C@H](CO)C(=O)N[C@@H](C(=O)NCC(=O)N[C@H](CCCCN)C(N)=O)[C@H](C)O)[C@H](C)O)[C@H](C)O [X12-45-GK] (H-[dI][dS][dL][dP][dT][dP][dT][dW][dW][dP][dS][dT]G[dK]-NH2) . Its measured pKd is 5.22

Consider CC[C@@H](C)[C@@H](NC(=O)[C@H](NC(=O)[C@@H](CCCCN)NC(=O)[C@H](N)CO)C(C)C)C(=O)N[C@H](CC(C)C)C(=O)N1CCC[C@@H]1C(=O)N[C@H](CCC(=O)O)C(=O)N1CCC[C@@H]1C(=O)N[C@H](Cc1ccccc1)C(=O)N[C@H](Cc1c[nH]c2ccccc12)C(=O)N[C@H](Cc1c[nH]c2ccccc12)C(=O)N1CCC[C@@H]1C(N)=O [X12-47] (H-[dS][dK][dV][dI][dL][dP][dE][dP][dF][dW][dW][dP]-NH2) . Its measured pKd is 5.00
